- test.name: self-splicing fitness, log relative to wild type (ln ratio); higher = more splicing; Tetrahymena group I intron in knt gene, E. coli kanamycin selection, DiMSum; sequences stand for … in CUCUCU…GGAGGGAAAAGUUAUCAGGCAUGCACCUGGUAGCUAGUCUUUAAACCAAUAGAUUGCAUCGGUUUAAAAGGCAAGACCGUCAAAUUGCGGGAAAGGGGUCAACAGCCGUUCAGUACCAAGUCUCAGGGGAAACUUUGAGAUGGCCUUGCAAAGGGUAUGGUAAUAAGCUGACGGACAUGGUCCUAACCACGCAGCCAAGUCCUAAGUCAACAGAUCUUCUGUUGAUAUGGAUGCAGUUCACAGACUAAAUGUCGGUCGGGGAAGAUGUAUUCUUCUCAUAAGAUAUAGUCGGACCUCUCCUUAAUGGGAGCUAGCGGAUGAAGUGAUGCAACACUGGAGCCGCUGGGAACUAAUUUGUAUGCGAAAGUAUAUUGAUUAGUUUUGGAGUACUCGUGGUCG;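 also: selection with 25 µg/mL kanamycin versus none on LB agar overnight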
- condition: 30 °C
observed.property: self-splicing fitness (ln)
One number for each entry.

Previously resolved entries follow.
sequence.content: CUGCAGCAAUAUUACGCGAU
self-splicing fitness (ln): -1.12
--
sequence.content: ACUUAGCAAUAUUACGAUCG
self-splicing fitness (ln): -1.4
--
sequence.content: ACACAGCAAUAUUACGUCAA
self-splicing fitness (ln): -2.25
--
sequence.content: AUAUAGCAAUAUUACGUGGG
self-splicing fitness (ln): -3.53
--
sequence.content: GUCCAGCAAUAUUACGGCAC
self-splicing fitness (ln): -1.17
--
sequence.content: CGGAAGCAAUAUUACGCUUU
self-splicing fitness (ln): -2.02

State the recorded self-splicing fitness (ln) for every item in the following list.
1. CGGAAGCAAUAUUACGUCCA
2. CUGCAGCAAUAUUACGACUG

## Result
[-0.281, -2.56]
